biological target: SARS-CoV-2 M^pro (Severe acute respiratory syndrome coronavirus 2, UniProt P0DTD1); assay: Enzyme kinetics of M^pro with inhibitors; assay type: biochemical

{"chem.smiles": "CC(C)(O)CCOc1cc(Cl)cc(-c2cc(-c3c[nH]c(=O)[nH]c3=O)cn(-c3cccnc3)c2=O)c1", "IC50": "250 to 500 nM"}

Recorded values, source paper PMC8218531.
